Where do the numbers come from? From patent US7091220B2.

System: α2-subtype of the human α-adrenergic receptor
protocol_notes: SPA test, affinity for the α2-subtype of the human α-adrenergic receptor
Assay type: binding

# compound, test_system, % Inhibition of α2 (humans), 10 μM [%]
measured = [
    ("CN(C)C(c1ccccc1Br)c1c[nH]c2cccc([N+](=O)[O-])c12 (stereo not drawn) [Example 57]", "α2-subtype of the human α-adrenergic receptor", 64),
    ("CN(C)C(c1c(F)cccc1Cl)c1c[nH]c2cccc([N+](=O)[O-])c12 (stereo not drawn) [Example 55]", "α2-subtype of the human α-adrenergic receptor", 49),
    ("CN(C)C(c1cc(Br)ccc1F)c1cn(C)c2ccccc12 (stereo not drawn) [Example 52]", "α2-subtype of the human α-adrenergic receptor", 37),
    ("CN(C)C(c1c(F)cccc1Cl)c1c(-c2ccc(Cl)cc2)[nH]c2ccccc12 (stereo not drawn) [Example 67]", "α2-subtype of the human α-adrenergic receptor", 36),
    ("CN(C)C(c1cccc(Cl)c1)c1cn(C)c2ccccc12 (stereo not drawn) [Example 69]", "α2-subtype of the human α-adrenergic receptor", 75),
    ("CCc1cccc2c(C(c3cccc(Br)c3)N(C)C)c[nH]c12 (stereo not drawn) [Example 59]", "α2-subtype of the human α-adrenergic receptor", 37),
    ("CN(C)C(c1ccccc1Br)c1cn(C)c2ccccc12 (stereo not drawn) [Example 58]", "α2-subtype of the human α-adrenergic receptor", 82),
    ("Cc1[nH]c2ccccc2c1C(c1ccc(C(C)(C)C)cc1)N(C)C (stereo not drawn) [Example 61]", "α2-subtype of the human α-adrenergic receptor", 63),
    ("CN(C)C(c1ccc(C(C)(C)C)cc1)c1cn(C)c2ccccc12 (stereo not drawn) [Example 63]", "α2-subtype of the human α-adrenergic receptor", 60),
    ("CN(C)C(c1ccc(F)cc1Cl)c1c[nH]c2cccc([N+](=O)[O-])c12 (stereo not drawn) [Example 64]", "α2-subtype of the human α-adrenergic receptor", 48),
    ("CCn1c(-c2ccccc2)c(C(c2c(F)cccc2Cl)N(C)C)c2ccccc21 (stereo not drawn) [Example 54]", "α2-subtype of the human α-adrenergic receptor", 55),
    ("CN(C)C(c1cccc(Cl)c1Cl)c1cn(C)c2ccccc12 (stereo not drawn) [Example 70]", "α2-subtype of the human α-adrenergic receptor", 63),
    ("CCn1c(-c2ccccc2)c(C(c2ccc(C(C)(C)C)cc2)N(C)C)c2ccccc21 (stereo not drawn) [Example 62]", "α2-subtype of the human α-adrenergic receptor", 51),
    ("CN(C)C(c1ccc(Cl)cc1Cl)c1cn(C)c2ccccc12 (stereo not drawn) [Example 71]", "α2-subtype of the human α-adrenergic receptor", 50),
    ("Cc1cccc2[nH]cc(C(c3ccc(F)cc3Cl)N(C)C)c12 (stereo not drawn) [Example 65]", "α2-subtype of the human α-adrenergic receptor", 42),
    ("CN(C)C(c1cccc(Br)c1)c1cn(C)c2ccccc12 (stereo not drawn) [Example 60]", "α2-subtype of the human α-adrenergic receptor", 66),
    ("Cc1[nH]c2ccc([N+](=O)[O-])cc2c1C(c1ccccc1)N(C)C (stereo not drawn) [Example 15]", "α2-subtype of the human α-adrenergic receptor", 40),
    ("CN(C)C(c1cc(Br)ccc1F)c1c[nH]c2cccc([N+](=O)[O-])c12 (stereo not drawn) [Example 51]", "α2-subtype of the human α-adrenergic receptor", 43),
]
